- METHOD_NOTES: Pharmacokinetics in serum after IV or IN administration
- Type: in vivo
- MEASUREMENT_PARAMETERS: mouse, serum, inhaled or intranasal; IN, 20 mg/kg, mice
TEST_READOUT: AUC(0-t)

input: Name the recorded AUC(0-t) of the compound listed here: O=c1c(O[C@@H]2O[C@H](CO)[C@H](O)[C@H](O)[C@H]2O)c(-c2ccc(O)c(O)c2)oc2cc(O)cc(O)c12 [HYP, Quercetin-3-O-β-D-galactopyranoside]
output: 5500 µg·h/mL

---

- METHOD_NOTES: Pharmacokinetics in serum after IV or IN administration
- Type: in vivo
- MEASUREMENT_PARAMETERS: mouse, serum; IV, 20 mg/kg, mice
TEST_READOUT: Tmax (min)
Report the figure in min without appending any unit label.

input: Name the recorded Tmax of the compound listed here: O=c1c(O[C@@H]2O[C@H](CO)[C@H](O)[C@H](O)[C@H]2O)c(-c2ccc(O)c(O)c2)oc2cc(O)cc(O)c12 [HYP, Quercetin-3-O-β-D-galactopyranoside]
output: 4.8

---

- METHOD_NOTES: Pharmacokinetics in brain after IV or IN administration
- Format: in vivo
- MEASUREMENT_PARAMETERS: mouse, brain; IV, 20 mg/kg, mice; read-out: Brain Ke (converted)
TEST_READOUT: k el (s⁻¹)
Report the figure in s⁻¹ without appending any unit label.

input: Name the recorded k el of the compound listed here: O=c1c(O[C@@H]2O[C@H](CO)[C@H](O)[C@H](O)[C@H]2O)c(-c2ccc(O)c(O)c2)oc2cc(O)cc(O)c12 [HYP, Quercetin-3-O-β-D-galactopyranoside]
output: 1.94e-05

---

- METHOD_NOTES: Pharmacokinetics in serum after IV or IN administration
- Type: in vivo
- MEASUREMENT_PARAMETERS: mouse, serum; IV, 20 mg/kg, mice
TEST_READOUT: AUC(0-t)
I'd appreciate it if you included the unit after the number.

input: Name the recorded AUC(0-t) of the compound listed here: O=c1c(O[C@@H]2O[C@H](CO)[C@H](O)[C@H](O)[C@H]2O)c(-c2ccc(O)c(O)c2)oc2cc(O)cc(O)c12 [HYP, Quercetin-3-O-β-D-galactopyranoside]
output: 23700 µg·h/mL

---

- METHOD_NOTES: Pharmacokinetics in brain after IV or IN administration
- Format: in vivo
- MEASUREMENT_PARAMETERS: mouse, brain, inhaled or intranasal; IN, 20 mg/kg, mice; read-out: Brain t1/2 (converted)
TEST_READOUT: half-life (h)
Report the figure in h without appending any unit label.

input: Name the recorded half-life of the molecule listed here: O=c1c(O[C@@H]2O[C@H](CO)[C@H](O)[C@H](O)[C@H]2O)c(-c2ccc(O)c(O)c2)oc2cc(O)cc(O)c12 [HYP, Quercetin-3-O-β-D-galactopyranoside]
output: 70.1
